FYI, the data here is from ChEMBL document CHEMBL1130662.

# Tested system: Prothrombin (Homo sapiens)
Recorded Ki determines the label; the label ranges are low interval: < 500 nM; middle interval: ≥ 500 nM and < 4000 nM; high interval: ≥ 4000 nM

Please review the entries below; each comes with its answer.
>  <Smiles structure>
COC(=O)CN(CCCc1ccc(-c2ccccc2S(N)(=O)=O)cc1)c1cccc(C(=N)N)c1.O=C(O)C(F)(F)F

>  <Qualitative label>
low interval

$$$$
>  <Smiles structure>
COC(=O)CN(CCc1ccc(-c2ccccc2S(N)(=O)=O)cc1)c1cccc(C(=N)N)c1.O=C(O)C(F)(F)F

>  <Qualitative label>
low interval

$$$$
>  <Smiles structure>
N=C(N)c1cccc(NCCCc2ccc(-c3ccccc3S(N)(=O)=O)cc2)c1.O=C(O)C(F)(F)F

>  <Qualitative label>
high interval

$$$$
>  <Smiles structure>
COC(=O)CN(c1cccc(C(=N)N)c1)S(=O)(=O)CCc1ccc(-c2ccccc2S(N)(=O)=O)cc1.O=C(O)C(F)(F)F

>  <Qualitative label>
high interval

$$$$

Tag the class for "N=C(N)c1cccc(N(CCO)CCCc2ccc(-c3ccccc3S(N)(=O)=O)cc2)c1.O=C(O)C(F)(F)F"
middle interval

Tag the class for "COCCN(CCCc1ccc(-c2ccccc2S(N)(=O)=O)cc1)c1cccc(C(=N)N)c1.O=C(O)C(F)(F)F"
middle interval

Tag the class for "CC(C)OC(=O)CN(c1cccc(C(=N)N)c1)S(=O)(=O)CCc1ccc(-c2ccccc2S(N)(=O)=O)cc1.O=C(O)C(F)(F)F"
high interval

Tag the class for "CC(C)OC(=O)CN(CCOc1ccc(-c2ccccc2S(N)(=O)=O)cc1)c1cccc(C(=N)N)c1.O=C(O)C(F)(F)F"
low interval

Tag the class for "N=C(N)c1cccc(N(CCCc2ccc(-c3ccccc3S(N)(=O)=O)cc2)CC(=O)O)c1.O=C(O)C(F)(F)F"
middle interval

Tag the class for "N=C(N)c1cccc(NS(=O)(=O)CCc2ccc(-c3ccccc3S(N)(=O)=O)cc2)c1.O=C(O)C(F)(F)F"
high interval

Tag the class for "CC(=O)CN(CCCc1ccc(-c2ccccc2S(N)(=O)=O)cc1)c1cccc(C(=N)N)c1.O=C(O)C(F)(F)F"
middle interval

Tag the class for "COC(=O)CN(CCCOc1ccc(-c2ccccc2S(N)(=O)=O)cc1)c1cccc(C(=N)N)c1.O=C(O)C(F)(F)F"
middle interval

Tag the class for "N=C(N)c1cccc(N(CCCc2ccc(-c3ccccc3S(N)(=O)=O)cc2)CC(N)=O)c1.O=C(O)C(F)(F)F"
middle interval

Tag the class for "COC(=O)CN(CCOc1ccc(-c2ccccc2S(N)(=O)=O)cc1)c1cccc(C(=N)N)c1.O=C(O)C(F)(F)F"
low interval

###

# Tested system: Coagulation factor X (Oryctolagus cuniculus)
# Sequence (O19045 whole entry): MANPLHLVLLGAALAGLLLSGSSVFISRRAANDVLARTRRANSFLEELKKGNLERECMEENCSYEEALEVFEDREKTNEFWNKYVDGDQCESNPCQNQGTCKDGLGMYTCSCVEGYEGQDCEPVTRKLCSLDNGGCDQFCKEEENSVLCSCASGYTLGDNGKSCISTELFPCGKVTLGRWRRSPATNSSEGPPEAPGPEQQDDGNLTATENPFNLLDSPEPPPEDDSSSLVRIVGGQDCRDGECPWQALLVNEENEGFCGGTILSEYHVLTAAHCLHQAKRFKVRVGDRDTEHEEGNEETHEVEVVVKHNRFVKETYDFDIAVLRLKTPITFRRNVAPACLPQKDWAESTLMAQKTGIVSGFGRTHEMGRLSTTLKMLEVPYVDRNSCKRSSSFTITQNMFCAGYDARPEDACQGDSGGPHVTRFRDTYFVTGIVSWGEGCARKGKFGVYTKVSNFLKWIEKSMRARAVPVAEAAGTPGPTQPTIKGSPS
Quantity name: pKi
Numbers only, as −log10 of the molar value.

>  <Compound>
COC(=O)CN(c1cccc(C(=N)N)c1)S(=O)(=O)CCc1ccc(-c2ccccc2S(N)(=O)=O)cc1.O=C(O)C(F)(F)F

>  <Experimental result>
7.68

$$$$
>  <Compound>
COC(=O)CC1(C(=O)Nc2ccc(C(=N)N)cc2)CC(c2cccc(C(=N)N)c2)=NO1 (centres undefined)

>  <Experimental result>
7.03

$$$$

Give pKi for each of the items listed below.
1. COCCN(CCCc1ccc(-c2ccccc2S(N)(=O)=O)cc1)c1cccc(C(=N)N)c1.O=C(O)C(F)(F)F
2. N=C(N)c1cccc(NS(=O)(=O)CCc2ccc(-c3ccccc3S(N)(=O)=O)cc2)c1.O=C(O)C(F)(F)F

1. 7.96
2. 7.29

###

# Tested system: Trypsin (Homo sapiens, UniProt P07477+P07478+P35030)
# Protocol notes: Inhibition of serine protease trypsin enzyme.
# Format: protein assay, Oryctolagus cuniculus
Label key: MET means Ki under 70 nM; NOT MET means Ki of 70 nM or more.

Determine whether this compound shows Ki lower than 70 nM (ties excluded): "N=C(N)c1cccc(N(CCCc2ccc(-c3ccccc3S(N)(=O)=O)cc2)CC(N)=O)c1.O=C(O)C(F)(F)F"
NOT MET

Determine whether this compound shows Ki lower than 70 nM (ties excluded): "CC(=O)CN(CCCc1ccc(-c2ccccc2S(N)(=O)=O)cc1)c1cccc(C(=N)N)c1.O=C(O)C(F)(F)F"
NOT MET

Determine whether this compound shows Ki lower than 70 nM (ties excluded): "CC(C)OC(=O)CN(CCCc1ccc(-c2ccccc2S(N)(=O)=O)cc1)c1cccc(C(=N)N)c1.O=C(O)C(F)(F)F"
NOT MET

###

# Tested system: Coagulation factor X (Oryctolagus cuniculus, UniProt O19045)
# Protocol notes: Inhibition of serine protease factor Xa enzyme.
Label key: yes means Ki under 7 nM; no means Ki of 7 nM or more.

>  <Compound>
COC(=O)CC(CCc1ccc(C(=N)N)cc1)c1cccc(C(=N)N)c1 (stereo not drawn)

>  <Qualitative label>
no

$$$$
>  <Compound>
CC(C)OC(=O)CN(CCCc1ccc(-c2ccccc2S(N)(=O)=O)cc1)c1cccc(C(=N)N)c1.O=C(O)C(F)(F)F

>  <Qualitative label>
no

$$$$
>  <Compound>
COC(=O)CN(CCCc1ccc(-c2ccccc2S(N)(=O)=O)cc1)c1cccc(C(=N)N)c1.O=C(O)C(F)(F)F

>  <Qualitative label>
yes

$$$$
>  <Compound>
CC(C)OC(=O)CN(CCOc1ccc(-c2ccccc2S(N)(=O)=O)cc1)c1cccc(C(=N)N)c1.O=C(O)C(F)(F)F

>  <Qualitative label>
yes

$$$$
>  <Compound>
N=C(N)c1cccc(N(CCCc2ccc(-c3ccccc3S(N)(=O)=O)cc2)CC(N)=O)c1.O=C(O)C(F)(F)F

>  <Qualitative label>
no

$$$$
>  <Compound>
COC(=O)CN(CCOc1ccc(-c2ccccc2S(N)(=O)=O)cc1)c1cccc(C(=N)N)c1.O=C(O)C(F)(F)F

>  <Qualitative label>
yes

$$$$

Determine whether this compound shows Ki lower than 7 nM (ties excluded): "COC(=O)CN(CCCOc1ccc(-c2ccccc2S(N)(=O)=O)cc1)c1cccc(C(=N)N)c1.O=C(O)C(F)(F)F"
yes

Determine whether this compound shows Ki lower than 7 nM (ties excluded): "N=C(N)c1cccc(N(CCCc2ccc(-c3ccccc3S(N)(=O)=O)cc2)CCOc2ccccc2)c1"
no

###

Target chain: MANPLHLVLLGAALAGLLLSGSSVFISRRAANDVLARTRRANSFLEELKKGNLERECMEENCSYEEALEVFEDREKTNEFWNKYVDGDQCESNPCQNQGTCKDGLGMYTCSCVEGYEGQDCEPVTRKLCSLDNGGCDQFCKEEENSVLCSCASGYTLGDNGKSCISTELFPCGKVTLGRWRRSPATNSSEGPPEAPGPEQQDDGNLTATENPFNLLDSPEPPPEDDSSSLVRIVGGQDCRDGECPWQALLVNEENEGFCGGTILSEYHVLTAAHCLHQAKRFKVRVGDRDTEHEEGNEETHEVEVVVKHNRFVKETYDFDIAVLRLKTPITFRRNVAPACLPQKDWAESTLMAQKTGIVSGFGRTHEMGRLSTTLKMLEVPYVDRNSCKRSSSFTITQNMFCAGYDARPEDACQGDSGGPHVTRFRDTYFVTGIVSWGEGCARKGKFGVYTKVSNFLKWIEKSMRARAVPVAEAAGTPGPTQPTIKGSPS
Quantity name: pIC50
Give bare numbers, as −log10 of the molar value.

Item CC(=N)N1CC[C@H](Oc2ccc([C@H](Cc3ccc4ccc(C(=N)N)cc4c3)C(=O)O)cc2)C1 [DX-9065A] : provide pIC50
7.39

###

# Tested system: Trypsin (Homo sapiens, UniProt P07477+P07478+P35030)
# Protocol notes: Inhibition of serine protease trypsin enzyme.
# Type: protein assay, Oryctolagus cuniculus
Consider the following compounds; for each one, report its Ki.

The examples below pair each entry with its known result.
>  <Smiles structure>
COCCN(CCCc1ccc(-c2ccccc2S(N)(=O)=O)cc1)c1cccc(C(=N)N)c1.O=C(O)C(F)(F)F

>  <Ki>
330 nM

$$$$
>  <Smiles structure>
COC(=O)CN(c1cccc(C(=N)N)c1)S(=O)(=O)CCc1ccc(-c2ccccc2S(N)(=O)=O)cc1.O=C(O)C(F)(F)F

>  <Ki>
180 nM

$$$$
>  <Smiles structure>
COC(=O)CN(CCc1ccc(-c2ccccc2S(N)(=O)=O)cc1)c1cccc(C(=N)N)c1.O=C(O)C(F)(F)F

>  <Ki>
56 nM

$$$$

Please examine the following record next.
Item "COC(=O)CN(CCOc1ccc(-c2ccccc2S(N)(=O)=O)cc1)c1cccc(C(=N)N)c1.O=C(O)C(F)(F)F" : provide Ki
19 nM
